Biological target: T1, Ep-CAM (UniProt P16422 24-265, limits assumed)
T1 construct: Antigen of the Biacore analysis of ING-1 variants
T1 sequence (looked up): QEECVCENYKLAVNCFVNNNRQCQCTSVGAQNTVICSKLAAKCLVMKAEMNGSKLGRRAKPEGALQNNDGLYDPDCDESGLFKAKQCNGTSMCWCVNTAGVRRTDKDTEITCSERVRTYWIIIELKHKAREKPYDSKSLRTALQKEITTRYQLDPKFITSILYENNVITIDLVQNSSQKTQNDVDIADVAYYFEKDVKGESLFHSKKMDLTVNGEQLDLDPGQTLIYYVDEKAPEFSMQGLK
Experiment: Biacore, Fab periplasmic extract
METRIC_NAME: binding result

| BINDER | READOUT_VALUE |
| --- | --- |
| ING-1 heavy chain G33D (Fab, V domains shown) VH: QIQLVQSGPELKKPGETVKISCKASGYTFTKYDMNWVKQAPGKGLKWMGWINTYTEEPTYGDDFKGRFAFSLETSASTANLQINNLKSEDTATYFCARFGSAVDYWGQGTSVTVSS VL: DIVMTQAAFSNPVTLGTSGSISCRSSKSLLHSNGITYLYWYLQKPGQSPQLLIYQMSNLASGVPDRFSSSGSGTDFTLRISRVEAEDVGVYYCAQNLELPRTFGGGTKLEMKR | no binding |
| ING-1 heavy chain W50E (Fab, V domains shown) VH: QIQLVQSGPELKKPGETVKISCKASGYTFTKYGMNWVKQAPGKGLKWMGEINTYTEEPTYGDDFKGRFAFSLETSASTANLQINNLKSEDTATYFCARFGSAVDYWGQGTSVTVSS VL: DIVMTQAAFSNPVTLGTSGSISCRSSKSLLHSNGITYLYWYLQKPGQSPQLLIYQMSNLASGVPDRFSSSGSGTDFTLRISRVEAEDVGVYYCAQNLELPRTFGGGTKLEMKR | no binding |
